Cited source for all entries: ChEMBL document CHEMBL1126280

- Test system: Cavia porcellus
- measurementNotes: Compound was evaluated in vivo for its effective dose against bronchoconstriction induced by LTD4 (0.2 ug/kg, iv) in anesthetized guinea pigs followed by id administration
- Type: functional
measuredEndpoint: log10(Effective dose) (log10 of the value in mg/kg)
// stored as log10 of Effective dose expressed in mg/kg

- molecule: "O=C(O)CCSC(SCCC(=O)O)c1cccc(/C=C/c2ccc3ccc(Cl)cc3n2)c1"
  measuredEndpoint: "log10(Effective dose)"
  readoutValue: -0.30

Inquiry: What is its log10(Effective dose) for Cavia porcellus? Entry: O=C([O-])CCCOc1cccc(/C=C/c2ccc3ccc(Cl)cc3n2)c1.[Na+]
Reply text: 0.40

Inquiry: What is its log10(Effective dose) for Cavia porcellus? Entry: CN(C)C(=O)CCSC(SCCC(=O)O)c1cccc(/C=C/c2ccc3ccc(Cl)cc3n2)c1 (stereo not given) [MK-571]
Reply text: -1.00

Inquiry: What is its log10(Effective dose) for Cavia porcellus? Entry: O=C([O-])CCCOc1cccc(/C=C/c2ccc3cc(Cl)c(Cl)cc3n2)c1.[Na+]
Reply text: 0.00

Inquiry: What is its log10(Effective dose) for Cavia porcellus? Entry: O=C([O-])CCCOc1cccc(/C=C/c2ccc3cc(Cl)ccc3n2)c1.[Na+]
Reply text: 0.70

Inquiry: What is its log10(Effective dose) for Cavia porcellus? Entry: CCOC(=O)CCCOc1cccc(/C=C/c2ccc3ccccc3n2)c1
Reply text: 0.70

Inquiry: What is its log10(Effective dose) for Cavia porcellus? Entry: COC(=O)COc1cccc(/C=C/c2ccc3ccccc3n2)c1
Reply text: 1.00

Inquiry: What is its log10(Effective dose) for Cavia porcellus? Entry: NC(=O)CCSC(SCCC(=O)O)c1cccc(/C=C/c2ccc3ccc(Cl)cc3n2)c1 (stereo not given)
Reply text: -0.30

----------
- testedSystem: UniProt:Q2NNR5
- measurementNotes: In vitro inhibition of [3H]LTD4 binding to guinea pig lung membranes
- Assay type: tissue-based, Membrane
Binned IC50; ranges: low = under 30 nM, medium = from 30 nM up to 200 nM, high = 200 nM and over

Inquiry: Category of NC(=O)CCSC(SCCC(=O)O)c1cccc(/C=C/c2ccc3ccc(Cl)cc3n2)c1 (stereo not drawn) :
Reply text: low

Inquiry: Category of O=C(O)CCSC(SCCC(=O)O)c1cccc(NC(=O)c2ccc3ccccc3n2)c1 :
Reply text: high

Inquiry: Category of O=C(O)CCSC(SCCC(=O)O)c1cccc(OCc2ccc3ccc(Cl)cc3n2)c1 :
Reply text: low

----------
- testedSystem: Cysteinyl leukotriene receptor 1 (Cavia porcellus, UniProt Q2NNR5)
- Sequence (Q2NNR5 whole entry): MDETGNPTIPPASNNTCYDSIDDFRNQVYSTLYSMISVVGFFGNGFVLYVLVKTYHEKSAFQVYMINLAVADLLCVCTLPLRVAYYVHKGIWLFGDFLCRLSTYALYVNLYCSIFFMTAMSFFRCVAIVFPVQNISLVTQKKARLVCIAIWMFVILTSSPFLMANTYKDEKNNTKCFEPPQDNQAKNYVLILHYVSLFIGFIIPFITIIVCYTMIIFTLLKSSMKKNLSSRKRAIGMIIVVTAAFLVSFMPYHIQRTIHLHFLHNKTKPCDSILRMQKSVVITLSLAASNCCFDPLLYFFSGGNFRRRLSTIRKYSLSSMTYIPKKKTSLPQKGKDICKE
- measurementNotes: In vitro inhibition of [3H]LTD4 binding to guinea pig lung membranes
- Format: tissue-based, Membrane
pIC50: −log10 of the molar value.
# cutoff 7 applies to pIC50; >= gives Met, < gives Not met

A selection of reference data follows.
- compound: "O=C(O)CCSC(SCCC(=O)O)c1cccc(CCCc2ccc3ccc(Cl)cc3n2)c1"
  className: "Not met"
- compound: "CN(C)CCSC(SCCC(=O)O)c1cccc(/C=C/c2ccc3ccc(Cl)cc3n2)c1 (stereo not given)"
  className: "Met"
- compound: "C(=C\\c1ccc2ccccc2n1)/c1ccccc1"
  className: "Not met"

Inquiry: API: above_or_equal(metric=pIC50, cutoff=7) for item O=C(O)CCSC(SCCC(=O)O)c1cccc(CCc2ccc3ccc(Cl)cc3n2)c1
Reply text: Met

Inquiry: API: above_or_equal(metric=pIC50, cutoff=7) for item O=C(O)CCSC(SCCC(=O)N1CCOCC1)c1cccc(/C=C/c2ccc3ccc(Cl)cc3n2)c1 (stereo not given)
Reply text: Met

Inquiry: API: above_or_equal(metric=pIC50, cutoff=7) for item O=C(O)CCSC(SCCC(=O)O)c1cccc(C2CC2c2ccc3ccc(Cl)cc3n2)c1 (stereo not given)
Reply text: Met

Inquiry: API: above_or_equal(metric=pIC50, cutoff=7) for item C(=C\c1ccc2ccccc2n1)/c1ccncc1
Reply text: Not met

Inquiry: API: above_or_equal(metric=pIC50, cutoff=7) for item C(=C\c1ccc2ccccc2n1)/c1cccnc1
Reply text: Not met

Inquiry: API: above_or_equal(metric=pIC50, cutoff=7) for item CN(C)C(=O)CCSC(SCCC(=O)O)c1cccc(/C=C/c2ccc3ccc(Cl)cc3n2)c1 (stereo not given)
Reply text: Met
